# assay system: T1, C-10 peptide (PSMGFR minus 10 amino acids from the C-terminus)
# T1 construct: also called C-10 PSMGFR; PSMGFR C-10
# T1 peptide: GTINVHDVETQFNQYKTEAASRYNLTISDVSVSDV
# method: ELISA (FIG. 201C)
# Procedure: FIG. 201A-201C show graphs of ELISA assays to determine the binding of another set of antibodies generated by immunizing animals with the PSMGFR peptide. […] F3, B12, B2, B7, B9, 8C7F3 and H11 all bound to the PSMGFR peptide and to the N−10 peptide. This same ELISA assay was performed on the antibodies of the invention (FIG. 64-66 and FIG. 201). Note that only 20A10 exactly matches the binding profile of MNC2 and MNE6. 25E6, 28F9 and 18G12 are all able to bind to the N−10 peptide. […]
value type: binding result

B7 mouse monoclonal antibody (antibody, V domains shown, raised against PSMGFR; built from framework and CDR entries) VH: EVQVVESGGDLVKPGGSLKLSCAASGFTFSRYGMSWVRQTPDKRLEWVATISSGGTYIYYPDSVKGRFTISRDNAKNTLYLQMSSLKSEDTAMYYCARDNYGSSYDYAMDYWGQGTSVTVSS VL: DVLMTQTPLSLPVSLGDQASISCRSSQTIVHSNGNTYLEWYLQKPGQSPKLLIYKVSNRFSGVPDRFSGSGSGTDFTLKISRVEAEDLGVYYCFQDSHVPLTFGAGTKLELK = no binding
B12 mouse monoclonal antibody (antibody, V domains shown, raised against PSMGFR; built from framework and CDR entries) VH: QAQLKESGPGLVAPSQSLSITCTVSGFSLTSYGVHWVRQPPGKGLEWLGVIWPGGSTNYNSTLMSRMRIIKDNSKSQVFLKMNSLQIDDTAMYYCARDRTPRVGAWFAYWGQGTLVTVSA VL: IIVLTQSPASLAVSLGQRATISCRASESVATYGNNFMQWYQQKPGQPPKLLIYLASTLDSGVPARFSGSGSRTDFTLTIDPVEADDAATYYCQQNNEDPPTFGGGTKLEIK = no binding
B9 mouse monoclonal antibody (antibody, V domains shown, raised against PSMGFR; built from framework and CDR entries) VH: EVQVVESGGDLVKPGGSLKLSCAASGFTFSRYGMSWVRQTPDKRLEWVATISSGGTYIYYPDSVKGRFTISRDNAKNTLYLQMSSLKSEDTAMYYCARDNYGSSYDYAMDYWGQGTSVTVSS VL: QIVLTQSPAIMSASPGEEVTLTCSASSSVSYMHWFQQRPGTSPKLWIYTTSNLASGVPARFSGSGSGTSYSLTISRMEAEDAATYYCQQRSSYPFTFGSGTKLEIK = no binding
